assay: Acute toxicity in female and male mice after oral administration of a single dose; type: in vivo; details: mouse, in vivo, observation time 14 days, read-out: Peroral Toxicity
endpoint: LD50 at 336 h

Data request: What does the record list as LD50 at 336 h for O=C(Cc1ccc(C(=O)O)cc1)NC(c1ccccc1F)c1ccccc1N1CCCCC1 (stereo not shown) ?
Data returned: > 1000 mg/kg

Data request: Quick one: LD50 at 336 h of "CC(C)=C(NC(=O)Cc1ccc(C(=O)O)cc1)c1ccccc1N1CCCCC1" ?
Data returned: > 500 mg/kg

Data request: Reported LD50 at 336 h for O=C(Cc1ccc(C(=O)O)cc1)NC(c1ccccc1)c1ccccc1N1CCCCC1 (racemic) : what is it?
Data returned: > 2000 mg/kg

Data request: Entry O=C(Cc1ccc(C(=O)O)cc1)NC(c1ccc(Cl)cc1)c1ccccc1N1CCCCC1 (stereo not shown) : reported LD50 at 336 h = ?
Data returned: > 1000 mg/kg

Data request: Requested read-out: LD50 at 336 h. Entry: "CC/C=C(\NC(=O)Cc1ccc(C(=O)O)cc1)c1ccccc1N1CCCCC1"
Data returned: > 1000 mg/kg

Data request: Look up LD50 at 336 h for this molecule: Cc1cccc(C(NC(=O)Cc2ccc(C(=O)O)cc2)c2ccccc2N2CCCCC2)c1 (stereo not shown)
Data returned: > 1000 mg/kg

Data request: # LD50 at 336 h lookup, item CC(NC(=O)Cc1ccc(C(=O)O)cc1)c1ccccc1N1CCCCC1 (racemic)
Data returned: > 2000 mg/kg

* * *

system: blood-sugar; test: Blood-sugar lowering activity in starved female rats after oral administration; type: in vivo; conditions: Rattus norvegicus, po, 5 mg/kg orally, 1 hour, n.s. = not statistically significant, read-out: Blood-sugar lowering activity, percent as compared with the controls
For each of the compounds below, state its change in vivo at 5 mg/kg.
Give the value, in units of %, as a plain number.

Data request: Need change in vivo at 5 mg/kg of CCCC(NC(=O)Cc1ccc(C(=O)O)cc1)c1ccccc1N1CCCCCC1 (stereo not drawn) , thanks.
Data returned: -46

Data request: # input compound: O=C(Cc1ccc(C(=O)O)cc1)NC(c1ccccc1)c1cccc(Cl)c1N1CCCCC1 (stereo not drawn) ; wanted: its change in vivo at 5 mg/kg
Data returned: -45

Data request: Which change in vivo at 5 mg/kg value belongs to CCCC(NC(=O)Cc1ccc(C=CC(=O)O)cc1)c1ccccc1N1CCCCC1 (stereo not drawn) ?
Data returned: -48

Data request: Query (compound): Cc1cccc(C(NC(=O)Cc2ccc(C(=O)O)cc2)c2ccccc2N2CCCCC2)c1 (stereo not drawn) ; field requested: change in vivo at 5 mg/kg
Data returned: -43

Data request: Would you mind telling me what change in vivo at 5 mg/kg value was observed for O=C(Cc1ccc(C(=O)O)cc1)NC(c1cccc(Cl)c1)c1ccccc1N1CCCCC1 (stereo not drawn) ?
Data returned: -43

Data request: Can you look up the measured change in vivo at 5 mg/kg of CCCC(NC(=O)Cc1ccc(C(=O)O)cc1)c1ccccc1N1CCCCC1 (racemic) for me?
Data returned: -44
